tested on: 276233-004-R-J1-PDC complex spheroid viability; test: Anticancer human tumor 276233-004-R-J1-PDC patient-derived colon adenocarcinoma cell line growth inhibition [GQUAD]; settings: curve of first compound; second compound 3.16 µM;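 further: spheroids exposed to drugs for seven days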
pIC50: −log10 of the molar value.
measurementKind: pIC50

## Task For the molecule shown here, Cc1cccc(N(C)C(=O)C2C(O)CCN2c2nc(C)cc(C(F)(F)F)c2C#N)c1 (stereo not drawn) + Cc1cnc(CNC(=O)c2c(=O)c3ccc(N4CCCN(C)CC4)nc3n3c2sc2ccccc23)cn1 , give the reported pIC50.
## Result < 5.00

## Task One more molecule: CC(C)n1c(=O)n(C)c2cnc3cc(F)c(-c4ccc(OCCCN5CCCCC5)nc4)cc3c21 + Cc1cnc(CNC(=O)c2c(=O)c3ccc(N4CCCN(C)CC4)nc3n3c2sc2ccccc23)cn1
## Result < 5.00

## Task One more molecule: COc1ccc([C@@H](O)c2cc(-c3ncnc4cc(N5CCOCC5)ccc34)c(F)cc2Cl)nn1 + CN(C)c1ccc(Nc2c3ccc(NC(=O)CCN4CCCC4)cc3nc3cc(NC(=O)CCN4CCCC4)ccc23)cc1
## Result 6.90

## Task One more molecule: C#Cc1c(F)ccc2cc(O)cc(-c3ncc4c(N5CC6CCC(C5)N6)nc(OCC56CCCN5CC(F)C6)nc4c3F)c12 (stereo not drawn) + Cc1cnc(CNC(=O)c2c(=O)c3ccc(N4CCCN(C)CC4)nc3n3c2sc2ccccc23)cn1
## Result 5.81

## Task One more molecule: CCCS(=O)(=O)Nc1ccc(F)c(C(=O)c2c[nH]c3ncc(-c4ccc(Cl)cc4)cc23)c1F + CN(C)c1ccc(Nc2c3ccc(NC(=O)CCN4CCCC4)cc3nc3cc(NC(=O)CCN4CCCC4)ccc23)cc1
## Result < 5.00

## Task One more molecule: O=c1[nH]cc(F)c(=O)[nH]1 + CN(C)c1ccc(Nc2c3ccc(NC(=O)CCN4CCCC4)cc3nc3cc(NC(=O)CCN4CCCC4)ccc23)cc1
## Result < 5.00

## Task One more molecule: Cn1ncnc1[C@H]1c2n[nH]c(=O)c3cc(F)cc(c23)N[C@@H]1c1ccc(F)cc1 + CN(C)c1ccc(Nc2c3ccc(NC(=O)CCN4CCCC4)cc3nc3cc(NC(=O)CCN4CCCC4)ccc23)cc1
## Result < 6.50

## Task One more molecule: O=C(NO)c1cnc(N2CCN(S(=O)(=O)c3ccc4ccccc4c3)CC2)nc1 + CN(C)c1ccc(Nc2c3ccc(NC(=O)CCN4CCCC4)cc3nc3cc(NC(=O)CCN4CCCC4)ccc23)cc1
## Result 6.68

## Task One more molecule: Cn1ncnc1[C@H]1c2n[nH]c(=O)c3cc(F)cc(c23)N[C@@H]1c1ccc(F)cc1 + Cc1[nH]c2ccc(F)cc2c1-c1nc2c3cccnc3c3ncccc3c2[nH]1
## Result < 6.50

## Task One more molecule: Cc1[nH]c2ccccc2c1CCNCc1ccc(/C=C/C(=O)NO)cc1 + CN(C)c1ccc(Nc2c3ccc(NC(=O)CCN4CCCC4)cc3nc3cc(NC(=O)CCN4CCCC4)ccc23)cc1
## Result > 9.00

## Task One more molecule: C=CCn1c(=O)c2cnc(Nc3ccc(N4CCN(C)CC4)cc3)nc2n1-c1cccc(C(C)(C)O)n1 + Cc1cnc(CNC(=O)c2c(=O)c3ccc(N4CCCN(C)CC4)nc3n3c2sc2ccccc23)cn1
## Result < 5.00

## Task One more molecule: CC(=O)O[C@H]1C(=O)[C@@]2(C)[C@H]([C@H](OC(=O)c3ccccc3)[C@]3(O)C[C@H](OC(=O)[C@H](O)[C@@H](NC(=O)c4ccccc4)c4ccccc4)C(C)=C1C3(C)C)[C@]1(OC(C)=O)CO[C@@H]1C[C@@H]2O + CN(C)c1ccc(Nc2c3ccc(NC(=O)CCN4CCCC4)cc3nc3cc(NC(=O)CCN4CCCC4)ccc23)cc1
## Result > 7.50

## Task One more molecule: COc1cccc2c1C(=O)c1c(O)c3c(c(O)c1C2=O)CC(O)(C(=O)CO)CC3OC1CC(N)C(O)C(C)O1 (stereo not drawn) + Cc1cnc(CNC(=O)c2c(=O)c3ccc(N4CCCN(C)CC4)nc3n3c2sc2ccccc23)cn1
## Result 5.67
